These entries and their values trace back to patent US9199981B2.

target: c-kit (Homo sapiens (Human)); experiment: Mo7e cell proliferation assay (SCF dependent proliferation); assay type: cell-based; settings: Mo7e cells stimulated with human recombinant SCF, 48 hours, 1% FBS
compounds and their reported IC50

>  <Compound>
CC1(C)CC(c2nc(-c3ccc(F)c(NC(=O)c4cnc5ccccn45)c3)no2)C1

>  <IC50, nM>
125

$$$$
>  <Compound>
Cc1ccc(-c2noc(C3CC(F)(F)C3)n2)cc1NC(=O)c1cnc2ccc(CN3CCN(C)CC3)cn12

>  <IC50, nM>
249

$$$$
>  <Compound>
CO/N=C1/CCC(c2nc(-c3ccc(C)c(NC(=O)c4cnc5ccccn45)c3)no2)C1 (stereo not shown)

>  <IC50, nM>
203

$$$$
>  <Compound>
Cc1ccc(-c2noc(C3CC(F)(F)C3)n2)cc1NC(=O)c1cnc2ccc(CC(C)(C)O)cn12

>  <IC50, nM>
165

$$$$

----------
molecular target: UniProtKB P10721; experiment: Mo7e cell proliferation assay (SCF dependent proliferation); type: cell-based; conditions: Mo7e cells stimulated with human recombinant SCF, 48 hours, 1% FBS
Under this convention, 1.0 denotes IC50 strictly below 0.06 µM and 0.0 denotes IC50 at or above 0.06 µM.

>  <Compound>
Cc1ccn2c(C(=O)Nc3cc(-c4noc([C@@H]5C[C@H]5F)n4)ccc3C)cnc2c1

>  <Classification>
0.0

$$$$
>  <Compound>
Cc1ccc(-c2noc(CCC3(O)CC3)n2)cc1NC(=O)c1cnc2ccccn12 [F55a]

>  <Classification>
0.0

$$$$
>  <Compound>
Cc1ccc(-c2noc(C3CC(F)(F)C3)n2)cc1NC(=O)c1cnc2ccc(-c3cnn(CC(=O)O)c3)cn12

>  <Classification>
0.0

$$$$
>  <Compound>
Cc1ccc(-c2noc(C3CC3(F)F)n2)cc1NC(=O)c1cnc2ccc(COCC(F)(F)F)cn12 (stereo not drawn)

>  <Classification>
0.0

$$$$
>  <Compound>
Cc1ccn2c(C(=O)Nc3cc(-c4noc([C@H]5C[C@@H]5F)n4)ccc3C)cnc2c1

>  <Classification>
1.0

$$$$
>  <Compound>
Cc1ccc(-c2noc(C3CC(F)(F)C3)n2)cc1NC(=O)c1cnc2ccc(CCC(=O)OC(C)(C)C)cn12

>  <Classification>
0.0

$$$$
>  <Compound>
Cc1ccc(-c2noc(C3CC(F)(F)C3)n2)cc1NC(=O)c1cnc2ccc(COCCO)cn12

>  <Classification>
1.0

$$$$
>  <Compound>
Cc1ccc(-c2noc([C@H]3CC3(F)F)n2)cc1NC(=O)c1cnc2ccccn12 (stereo in doubt)

>  <Classification>
1.0

$$$$
>  <Compound>
COC(=O)NC1(c2nc(-c3ccc(C)c(NC(=O)c4cnc5ccccn45)c3)no2)CC(F)(F)C1

>  <Classification>
0.0

$$$$
>  <Compound>
COCCOCc1ccc2ncc(C(=O)Nc3cc(-c4noc(C5CC(F)(F)C5)n4)ccc3C)n2c1 [F164]

>  <Classification>
0.0

$$$$
>  <Compound>
COC(=O)NC1CC(c2nc(-c3ccc(C)c(NC(=O)c4cnc5ccccn45)c3)no2)C1 (stereo not drawn)

>  <Classification>
0.0

$$$$
>  <Compound>
Cc1ccc(-c2noc(C3CC3O)n2)cc1NC(=O)c1cnc2ccccn12 (stereo not drawn)

>  <Classification>
0.0

$$$$
>  <Compound>
Cc1ccc(-c2noc(C3(O)CCC3)n2)cc1NC(=O)c1cnc2ccccn12

>  <Classification>
0.0

$$$$
>  <Compound>
Cc1ccc(-c2noc([C@H]3C[C@@H](N4CCCCC4)C3)n2)cc1NC(=O)c1cnc2ccccn12

>  <Classification>
0.0

$$$$
>  <Compound>
CC(=O)CCc1ccc2ncc(C(=O)Nc3cc(-c4noc(C5CC(F)(F)C5)n4)ccc3C)n2c1

>  <Classification>
1.0

$$$$
>  <Compound>
Cc1ccc(-c2noc(C3CC(F)(F)C3)n2)c(C)c1NC(=O)c1cnc2ccccn12

>  <Classification>
0.0

$$$$
>  <Compound>
Cc1ccc(-c2noc([C@H]3C[C@@](C)(O)C3)n2)cc1NC(=O)c1cnc2ccc(F)cn12

>  <Classification>
0.0

$$$$
>  <Compound>
Cc1ccc(-c2noc(C3(N(C)C)CC3)n2)cc1NC(=O)c1cnc2ccccn12

>  <Classification>
1.0

$$$$
>  <Compound>
COC1(C(F)(F)F)CC(c2nc(-c3ccc(C)c(N(C)C(=O)c4cnc5ccccn45)c3)no2)C1 (stereo not drawn)

>  <Classification>
0.0

$$$$
>  <Compound>
Cc1ccc(-c2noc(C3(N)CC3)n2)cc1NC(=O)c1cnc2ccccn12

>  <Classification>
0.0

$$$$
>  <Compound>
Cc1ccc(-c2noc(C3(NS(C)(=O)=O)CC3)n2)cc1NC(=O)c1cnc2ccccn12

>  <Classification>
1.0

$$$$
>  <Compound>
Cc1ccc(-c2noc(C3CC(F)(F)C3)n2)cc1NC(=O)c1cnc2cc(CC(C)(C)O)ccn12

>  <Classification>
0.0

$$$$
>  <Compound>
Cn1cc(-c2ccc3ncc(C(=O)Nc4cc(-c5noc(C6CC(F)(F)C6)n5)ccc4F)n3c2)cn1

>  <Classification>
1.0

$$$$
>  <Compound>
Cc1ccn2c(C(=O)Nc3cc(-c4noc(C5CC(F)C5)n4)ccc3C)cnc2c1 (stereo not drawn)

>  <Classification>
1.0

$$$$
>  <Compound>
Cc1ccc(-c2noc(C3CCC3)n2)cc1NC(=O)c1cnc2ccccn12

>  <Classification>
1.0

$$$$
>  <Compound>
Cc1ccc(-c2noc(C3CC(C)(C)C3)n2)cc1NC(=O)c1cnc2ccccn12

>  <Classification>
1.0

$$$$
>  <Compound>
Cc1ccc(-c2noc([C@H]3C[C@@H](N4CCN(C)CC4)C3)n2)cc1NC(=O)c1cnc2ccccn12

>  <Classification>
0.0

$$$$
>  <Compound>
[2H]C([2H])([2H])c1ccn2c(C(=O)Nc3cc(-c4noc(C5CC(F)(F)C5)n4)ccc3C)cnc2c1

>  <Classification>
1.0

$$$$
>  <Compound>
CC(C)(O)Cn1cc(-c2ccc3ncc(C(=O)Nc4cc(-c5noc(C6CC(F)(F)C6)n5)ccc4F)n3c2)cn1

>  <Classification>
1.0

$$$$
>  <Compound>
COCCN[C@H]1C[C@@H](c2nc(-c3ccc(C)c(NC(=O)c4cnc5ccccn45)c3)no2)C1

>  <Classification>
0.0

$$$$
>  <Compound>
Cc1ccc(-c2noc(C3CCCC3)n2)cc1NC(=O)c1cnc2ccccn12

>  <Classification>
1.0

$$$$
>  <Compound>
Cc1cn(-c2ccc3ncc(C(=O)Nc4cc(-c5noc(C6CC(F)(F)C6)n5)ccc4C)n3c2)cn1

>  <Classification>
0.0

$$$$
>  <Compound>
Cc1ccc(-c2noc(CNC3CC(F)(F)C3)n2)cc1NC(=O)c1cnc2ccccn12

>  <Classification>
1.0

$$$$

----------
molecular target: c-kit (Homo sapiens (Human), UniProt P10721); assay: Mo7e cell proliferation assay (SCF dependent proliferation); format: cell-based; conditions: Mo7e cells stimulated with human recombinant SCF, 48 hours, 1% FBS
Sequence (P10721 26-976): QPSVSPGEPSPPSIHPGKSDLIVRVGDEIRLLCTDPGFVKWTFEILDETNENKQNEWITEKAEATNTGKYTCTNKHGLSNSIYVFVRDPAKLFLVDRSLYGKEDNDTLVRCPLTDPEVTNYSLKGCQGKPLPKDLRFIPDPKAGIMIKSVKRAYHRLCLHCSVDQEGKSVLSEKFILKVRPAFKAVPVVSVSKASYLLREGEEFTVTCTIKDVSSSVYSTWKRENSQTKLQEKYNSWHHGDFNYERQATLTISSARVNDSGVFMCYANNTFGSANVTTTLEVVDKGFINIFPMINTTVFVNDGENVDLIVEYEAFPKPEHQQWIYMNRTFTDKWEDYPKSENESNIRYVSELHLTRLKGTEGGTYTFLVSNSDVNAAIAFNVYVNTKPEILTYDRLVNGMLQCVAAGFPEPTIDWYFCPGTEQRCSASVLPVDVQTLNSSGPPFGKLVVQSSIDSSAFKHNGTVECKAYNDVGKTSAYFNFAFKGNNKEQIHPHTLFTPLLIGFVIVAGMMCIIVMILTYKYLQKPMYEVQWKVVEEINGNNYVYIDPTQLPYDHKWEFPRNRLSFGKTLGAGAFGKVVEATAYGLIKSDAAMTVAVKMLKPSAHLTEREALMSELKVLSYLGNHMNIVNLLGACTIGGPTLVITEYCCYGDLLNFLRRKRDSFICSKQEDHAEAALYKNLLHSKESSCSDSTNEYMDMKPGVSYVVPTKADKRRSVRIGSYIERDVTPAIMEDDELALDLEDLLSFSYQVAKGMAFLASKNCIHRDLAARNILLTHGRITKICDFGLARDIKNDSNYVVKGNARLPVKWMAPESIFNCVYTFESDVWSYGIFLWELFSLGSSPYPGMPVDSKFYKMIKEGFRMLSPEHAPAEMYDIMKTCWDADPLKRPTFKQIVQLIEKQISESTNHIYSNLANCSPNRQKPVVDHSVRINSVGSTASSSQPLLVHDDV
pIC50: −log10 of the molar value.
Note to self: values exactly at 7 are TRUE. So pIC50 at or above 7 is TRUE, below is FALSE.

>  <Compound>
COCC(=O)NC1(c2nc(-c3ccc(C)c(NC(=O)c4cnc5ccccn45)c3)no2)CC1

>  <Classification>
FALSE

$$$$
>  <Compound>
COCc1ccc2ncc(C(=O)Nc3cc(-c4noc(C5CC(F)(F)C5)n4)ccc3C)n2c1

>  <Classification>
TRUE

$$$$
>  <Compound>
Cc1ccc(-c2noc(C3CC(=NOCCN4CCOCC4)C3)n2)cc1NC(=O)c1cnc2ccccn12 (centres unmarked)

>  <Classification>
FALSE

$$$$
>  <Compound>
Cc1ccc(-c2noc([C@H]3C[C@@H]3F)n2)cc1NC(=O)c1cnc2ccccn12 [F110]

>  <Classification>
TRUE

$$$$
>  <Compound>
Cc1ccc(-c2noc(C3CC(F)(F)C3)n2)cc1NC(=O)c1cnc2cc(C3CCNCC3)ccn12

>  <Classification>
FALSE

$$$$

----------
molecules and their reported IC50
biological target: c-kit (Homo sapiens (Human)); test: Mo7e cell proliferation assay (SCF dependent proliferation); type: cell-based; conditions: Mo7e cells stimulated with human recombinant SCF, 48 hours, 1% FBS

>  <Molecule>
Cc1ccc(-c2noc(C3CC(F)(F)C3)n2)cc1NC(=O)c1cnc2ccc(-c3cn[nH]c3)cn12

>  <Assay System>
c-kit (Homo sapiens (Human))

>  <Value Comparator>
=

>  <IC50, nM>
9

$$$$
>  <Molecule>
Cc1ccc2ncc(C(=O)Nc3cc(-c4noc(C5CC(F)C5)n4)ccc3C)n2c1 (centres unmarked)

>  <Assay System>
c-kit (Homo sapiens (Human))

>  <Value Comparator>
=

>  <IC50, nM>
56

$$$$
>  <Molecule>
Cc1ccc(-c2noc(CC3CC3)n2)cc1NC(=O)c1cnc2ccccn12

>  <Assay System>
c-kit (Homo sapiens (Human))

>  <Value Comparator>
=

>  <IC50, nM>
40

$$$$
>  <Molecule>
Cc1ccc(-c2noc(C3CC(F)(F)C3)n2)cc1NC(=O)c1cnc2cc(-c3c[nH]nn3)ccn12

>  <Assay System>
c-kit (Homo sapiens (Human))

>  <Value Comparator>
=

>  <IC50, nM>
13

$$$$
>  <Molecule>
Cc1ccc(-c2noc(C3CC(F)(F)C3)n2)cc1NC(=O)c1cnc2ccc(COCCF)cn12 [F83]

>  <Assay System>
c-kit (Homo sapiens (Human))

>  <Value Comparator>
=

>  <IC50, nM>
29

$$$$
>  <Molecule>
Cc1ccc(-c2noc(C3CC(F)(F)C3)n2)cc1NC(=O)c1cnc2cc(N3CCCC3=O)ccn12

>  <Assay System>
c-kit (Homo sapiens (Human))

>  <Value Comparator>
=

>  <IC50, nM>
37

$$$$
>  <Molecule>
Cc1ccc(-c2noc(C3CC4(CCCO4)C3)n2)cc1NC(=O)c1cnc2ccccn12 (centres unmarked)

>  <Assay System>
c-kit (Homo sapiens (Human))

>  <Value Comparator>
=

>  <IC50, nM>
88

$$$$
>  <Molecule>
[2H]c1c([2H])c([2H])n2c(C(=O)Nc3cc(-c4noc(C5CC(F)(F)C5)n4)ccc3C)cnc2c1[2H]

>  <Assay System>
c-kit (Homo sapiens (Human))

>  <Value Comparator>
=

>  <IC50, nM>
35

$$$$
>  <Molecule>
Cc1nnc(-c2ccc3ncc(C(=O)Nc4cc(-c5noc(C6CC(F)(F)C6)n5)ccc4F)n3c2)[nH]1

>  <Assay System>
c-kit (Homo sapiens (Human))

>  <Value Comparator>
=

>  <IC50, nM>
154

$$$$
>  <Molecule>
Cc1ccc(-c2noc([C@H]3C[C@@H](OCC(C)(C)O)C3)n2)cc1NC(=O)c1cnc2ccc(F)cn12

>  <Assay System>
c-kit (Homo sapiens (Human))

>  <Value Comparator>
>

>  <IC50, nM>
10000

$$$$
>  <Molecule>
Cc1ccc(-c2noc(C3CC(F)(F)C3)n2)cc1NC(=O)c1cnc2cc(N3CCOCC3)ccn12

>  <Assay System>
c-kit (Homo sapiens (Human))

>  <Value Comparator>
=

>  <IC50, nM>
7

$$$$
>  <Molecule>
Cc1ccc(-c2noc(CNC(=O)OC3(C)CC3)n2)cc1NC(=O)c1cnc2ccccn12

>  <Assay System>
c-kit (Homo sapiens (Human))

>  <Value Comparator>
=

>  <IC50, nM>
58

$$$$
>  <Molecule>
Cc1ccc(-c2noc(C3CC(O)(C(F)(F)F)C3)n2)cc1NC(=O)c1cnc2ccccn12 (centres unmarked)

>  <Assay System>
c-kit (Homo sapiens (Human))

>  <Value Comparator>
=

>  <IC50, nM>
13

$$$$
>  <Molecule>
Cc1ccc(-c2noc(C3CC4(C3)OC[C@H](C)O4)n2)cc1NC(=O)c1cnc2ccccn12 (some centres unmarked)

>  <Assay System>
c-kit (Homo sapiens (Human))

>  <Value Comparator>
=

>  <IC50, nM>
12

$$$$
>  <Molecule>
Cc1ccc(-c2noc(C3CC(F)(F)C3)n2)cc1NC(=O)c1cnc2ccc(CO)cn12

>  <Assay System>
c-kit (Homo sapiens (Human))

>  <Value Comparator>
=

>  <IC50, nM>
60

$$$$
>  <Molecule>
CON=C1CC(c2nc(-c3ccc(C)c(NC(=O)c4cnc5ccccn45)c3)no2)C1 (centres unmarked)

>  <Assay System>
c-kit (Homo sapiens (Human))

>  <Value Comparator>
=

>  <IC50, nM>
15

$$$$
>  <Molecule>
Cc1ccc(-c2noc(C3CC(F)(F)C3)n2)cc1NC(=O)c1cnc2cc(N3CCOC3=O)ccn12

>  <Assay System>
c-kit (Homo sapiens (Human))

>  <Value Comparator>
=

>  <IC50, nM>
39

$$$$
